experiment: ulcerogenic effect on the stomach of the rat; assay type: in vivo, male Chbb:THOM-rats; settings: rat, in vivo; Table II; daily oral administration for 3 days; limits in parentheses; Litchfield and Wilcoxon; read-out: Ulcerogenic activity in the stomach ED50
# TD50 values compiled below
Report only the number, with the unit mg/kg understood.

| compound smiles | unit text | TD50 |
| --- | --- | --- |
| Cc1cnc(NC(=O)C2=C(O)c3ccccc3S(=O)(=O)N2C)s1 | mg/kg | 2.31 |

In plain terms, CN1C(C(=O)Nc2nccs2)=C(O)c2ccccc2S1(=O)=O has a documented TD50 of 0.95

Per the records, this compound ( Cc1csc(NC(=O)C2=C(O)c3ccccc3S(=O)(=O)N2C)n1 ) has TD50 equal to 0.31

###

assay: acute toxicity in the mouse; format: in vivo, male and female Chbb: NMRI (SPF)-mice; conditions: in vivo; Table III; oral administration, mouse; deaths within 14 days; limits in parentheses
endpoint: LD50 at 336 h

Use these answered entries as a reference point.
| compound smiles | endpoint | result |
| --- | --- | --- |
| Cc1csc(NC(=O)C2=C(O)c3ccccc3S(=O)(=O)N2C)n1 | LD50 at 336 h | 488 mg/kg |
| CN1C(C(=O)Nc2nccs2)=C(O)c2ccccc2S1(=O)=O | LD50 at 336 h | 466 mg/kg |

Next molecule, please.
So, Cc1cnc(NC(=O)C2=C(O)c3ccccc3S(=O)(=O)N2C)s1 ? Its LD50 at 336 h was 470 mg/kg

###

Entries and their selectivity ratio values follow.
experiment: ulcerogenic effect on the stomach of the rat; assay type: in vivo, male Chbb:THOM-rats; conditions: rat, in vivo, po; Table IV; ED50 ulcer / ED50 adjuvant arthritis prim. reaction; read-out: Therapeutic Ratio I/II
Just the number, please, no unit after it.

Before answering, review these 2 worked examples.
| molecule | selectivity ratio |
| --- | --- |
| Cc1csc(NC(=O)C2=C(O)c3ccccc3S(=O)(=O)N2C)n1 [Compound B] | 0.84 |
| Cc1cnc(NC(=O)C2=C(O)c3ccccc3S(=O)(=O)N2C)s1 [Compound A] | 8.25 |

selectivity ratio in this record for CN1C(C(=O)Nc2nccs2)=C(O)c2ccccc2S1(=O)=O [C] : 1.23
